Source of measurements: patent US20240409645A1

# OD450 nm values compiled below
- MEASURED ON: T1, mouse IL-2Rβ (mouse) (UniProt P16297)
- T1 sequence (looked up): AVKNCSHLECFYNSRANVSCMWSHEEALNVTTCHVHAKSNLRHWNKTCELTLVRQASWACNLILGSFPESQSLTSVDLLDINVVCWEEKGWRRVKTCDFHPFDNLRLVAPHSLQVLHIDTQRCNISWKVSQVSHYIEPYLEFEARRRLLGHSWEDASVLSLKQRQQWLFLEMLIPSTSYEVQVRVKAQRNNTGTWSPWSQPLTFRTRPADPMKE
- EXPERIMENTAL PROTOCOL: P.E. binding ELISA
Answer format: numeric, OD450 nm implied, no suffix.

20-MP03F10 VHH (periplasmic extract) (VHH) VHH: EVQLVESGGGLVQAGGSLRLSCAASGRDFSSYAMGWFRQAPGKEREFVVAITWTKRSTDFPDSVKGRFTISRDNAKNTVYLDMNSLKPEDTAVYYCASARGLPVTPLGDIIYWGEGTLVTVSS: 0.048
16-MP02B08 VHH (periplasmic extract) (VHH) VHH: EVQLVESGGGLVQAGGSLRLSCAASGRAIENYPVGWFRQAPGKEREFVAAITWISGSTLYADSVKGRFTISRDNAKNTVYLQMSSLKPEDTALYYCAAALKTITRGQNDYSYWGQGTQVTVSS: 0.048

input: Which OD450 nm is reported for this binder? 24-MP06E05 VHH (periplasmic extract) (VHH) VHH: QVQLVESGGELVQGGASLRLSCAASGRTFSNANMAWFRQAPEKEREFVALITWSSGSTLYADSVKGRFTISRDNARKMVYLQMNSLKPEDTAVYYCAADGPPYSGTYYRYDTYDYWGQGTQVTVSS
output: 0.046

input: Record: 18-MP03C03 VHH (periplasmic extract) (VHH) VHH: QVQLVESGGGLVQPGGSLRLSCAISGGTLDSYGIGWVRQAPGKQREGVSCMSRSDDRTYYADSVKGRFTISKDSAKNTVYLQMTSLKPEDTAVYYCAAVDAYGCSLVQPTTYDFWGLGTQVTVSS
output: 0.048

input: 15-MP02E06 VHH (periplasmic extract) (VHH) VHH: QVQLVESGGGSVQPGGSLRLSCAASGFTFSNYAMSWVRQAPGKGLEWVASITGFGRGTDYADSVKGRFTISRDNAEDTLYLQMNSLKPEDTAVYYCAKYSSSTYYPPTPARGRDYRGQGTQVTVSS ?
output: 0.048

input: Also 17-MP02C09 VHH (periplasmic extract) (VHH) VHH: QVQLQESGGGLVQAGGSLRLSCVASGSVSSINGMAWYRQGADNQRVLVAAISRVGNTAYGDSVKGRFTISRQNARNTVYLQMNSLKPEDTAVYYCNADSWGGDDYWGQGTQVTVSS ?
output: 0.047

input: Now give it for 22-MP03F12 VHH (periplasmic extract) (VHH) VHH: EVQLVESGGGLVQAGGSLRLSCAASGSIFSINAMAWFRQVPGMERELVAAISRDGGASVYRDSVKGRFTISRDNSKNTVYLQMNTLKPEDTAIYVCAATRAIGWTARWITTDFDFWGQGTQVTVSS too.
output: 0.048

input: Could you do the same for 19-MP03F08 VHH (periplasmic extract) (VHH) VHH: EVQLVESGGGLVQTGGSLRLSCAASGGTFSRDAMAWFRQVPGKEREFVALISWSGATTNYADSVKGRFAISRDNGKNTVYLQMNRLKPADTAIYYCAADRRPMGSRSYFEPTEYDDWGQGTQVTVSS , please?
output: 0.049
